test system: MDA-N; assay: NCI tumour cell line growth inhibition, 48 h
Entries and their measured TGI follow.

{"columns": ["compound", "result"],
 "data": [
  ["Cc1ccc(OP(=O)(Oc2ccc(C)cc2)N2C=Cc3ccccc3C2C#N)cc1 (stereo not drawn)", "> 100 µM"]
]}

Form field: reported TGI of O=C(Nc1ccccc1)N(CCN(Cc1ccccc1)C(=O)Nc1ccccc1)CCN(Nc1ccccc1)C(=O)Nc1ccccc1
> 100 µM

And what about the compound COC(=O)CCc1ccc(CCC(=O)OC)cc1 ?
> 100 µM

Item: CC1C(C)(C)C23CC12C1(OCCO1)C3Br (stereo not drawn)
> 100 µM

Next entry: CCn1c(SCC(=O)N/N=C2\SCC(=O)N2c2ccc(C)cc2)nc2ccccc2c1=O
53.4 µM

Could you do the same for FC1(F)ON2CCc3ccccc3C2[C@H]1c1ccccc1 (stereo partly drawn) , please?
> 100 µM

Entry to check: C=C1C(C(=O)OC)[C@H]1C(=O)OC (stereo partly drawn)
> 100 µM

Entry Cc1cn(C2CC(n3cc(Cn4ccc(=O)[nH]c4=O)nn3)C(CO)O2)c(=O)[nH]c1=O (stereo not drawn) please
> 100 µM

Check COc1ccc(NC(=O)Oc2ccc3c(C)cc(=O)oc3c2)c(OC)c1 (tested in a mixture with another compound) too.
> 100 µM

# iterate: CO/C=C(/C(=O)OC)[C@@H]1C[C@@H]1c1ccc2ccccc2c1
65.2 µM
